Data credit: paper PMC8041284

Below is a list of entries, each paired with its recorded inhibition at 10 µM value.
# measurement.target: BTK (Homo sapiens, UniProt Q06187)
# Sequence (Q06187 402-655 limits assumed): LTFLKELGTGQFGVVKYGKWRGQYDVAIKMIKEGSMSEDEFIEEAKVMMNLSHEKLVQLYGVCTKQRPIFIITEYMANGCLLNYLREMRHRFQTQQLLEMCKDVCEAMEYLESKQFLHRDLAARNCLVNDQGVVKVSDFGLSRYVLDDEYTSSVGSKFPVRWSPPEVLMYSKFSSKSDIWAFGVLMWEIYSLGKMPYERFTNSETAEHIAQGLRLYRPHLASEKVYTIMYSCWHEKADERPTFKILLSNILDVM
# protocol.details: biochemical
# cond: read-out: BTK inhibition (%), 0.75 uM BTK, […] probe 3l, 15 min preincubation
quantity.measured: inhibition at 10 µM (%)

O=C1C=C2C=C[C@@H](O)[C@H](O)[C@H]2O1    25.5
C[C@@H](CC[C@@]1(O)O[C@H]2C[C@H]3[C@@H]4CC[C@@H]5C[C@@H](O[C@@H]6O[C@H](CO)[C@H](O)[C@H](O)[C@H]6O[C@@H]6O[C@H](CO)[C@@H](O)[C@H](O)[C@H]6O)CC[C@]5(C)[C@H]4CC[C@]3(C)[C@H]2[C@@H]1C)CO[C@@H]1O[C@H](CO)[C@@H](O)[C@H](O)[C@H]1O    -3.9
C=C1CC[C@H]2O[C@]2(C)CC[C@@H]2[C@@H]1CC2(C)C    -11.7
CC(C)=CCC/C(C)=C/CC/C(C)=C/CCC(=O)OC/C=C(\C)CCC=C(C)C    7.7
CC1(O)CC(c2nc(-c3ccc4ccc(-c5ccccc5)nc4c3)c3c(N)nccn23)C1 (stereo not shown)    33.1
COc1cccc(-c2ccc(NC(=O)C3=C(C(=O)O)CCC3)c(F)c2)c1    -75.9
C=CC(=O)Nc1cccc(Oc2nc(Nc3ccc(N4CCN(C)CC4)cc3)nc3ccsc23)c1    105
O=C(O)c1ccc(-c2ccc(/C=C3\SC(=S)N(Cc4ccccc4)C3=O)o2)cc1    11.6
CN(c1ccccc1CNc1nc(Nc2ccc3c(c2)CC(=O)N3)ncc1C(F)(F)F)S(C)(=O)=O    91.7
CC(C)(c1ccc(OCC(O)CO)cc1)c1ccc(OCC(O)CCl)cc1 (stereo not shown)    -2.3
O=C(NCc1cccc(O)c1)Nc1nc(-c2ccncc2)cs1    -4.8
O=C1CCC[C@@H]2[C@H]3CCC[N@+]4([O-])CCC[C@@H](CN12)[C@@H]34    -8.6
C[C@@]1(c2cc(-c3cncnc3)c(F)cc2F)CCSC(N)=N1    -25.7
Cc1ccc(CN(CC(O)COc2cccc3[nH]ccc23)C(C)(C)C)cc1 (stereo not shown)    6.9
COc1cc(O)c(C(=O)/C=C/c2ccccc2)c(OC)c1    6.9
CN(C)c1cccc(-c2c3c(=O)n(-c4ccccc4Cl)[nH]c3cc(=O)n2C)c1    -1.4
